Entry source: the supplement of paper PMC10567573

B1: LOC100129726 (parent)
chain: VHTGCHKKLGPEARRPRTRWGKN

variants of: B1; assay: protein stability index of a GFP-peptide fusion (GPS, HEK-293T) (PSI 1-6); higher = more stable; settings: c terminus: native;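 note: lentivirally expressed fusions sorted by FACS into six bins by GFP to DsRed ratio, PSI derived from sequencing read proportions per bin multiplied by bin number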
reportedEndpoint: protein stability index
Quick one: just the number, no unit, thanks!

# mutantLabel, resultValue
records = [
    ("G10F", 1.66),
    ("P16S", 1.46),
    ("A13S", 2.71),
    ("P11M", 2.37),
    ("G21T", 3.57),
]

Look up protein stability index: `G21L`
3.56

Look up protein stability index: `T18M`
2

Look up protein stability index: `E12R`
3.79

Look up protein stability index: `E12V`
1.23

Look up protein stability index: `N23P`
2.62

Look up protein stability index: `R17F`
2.48
